Below, each of the compounds is paired with its reported ED50 value.
TARGET: Adrenergic receptor alpha-2 (Rattus norvegicus) (UniProt P22086+P19328+P22909)
EXPERIMENT_SUMMARY: In vivo effective dose required to inhibit xylazine-induced loss of righting in rats upon subcutaneous administration
Format: functional, organism-based
MEASURED_PROPERTY: ED50

>>> test_value("COc1cc2c(cc1OC)C1=NOC(CN3CCN(Cc4cc5ccccc5s4)CC3)C1CO2 (stereo not drawn)")
"> 10 mg/kg"
>>> test_value("COc1cccc2c1CCC[C@H]2CN(C)CCc1ccc2ccoc2c1")
"> 10 mg/kg"
>>> test_value("COc1cc2c(cc1OC)C1=NOC(CN3CCN(Cc4cccc5ccccc45)CC3)C1CO2 (stereo not drawn)")
"> 10 mg/kg"
